# experiment: Partition coefficient (logD) (aqueous phase 0.1 N HCl)
# test-conditions: 0.1 N HCl (aqueous phase)
Category scheme (logD): low = under -2, middle = from -2 up to -0.2, high = -0.2 and over

Solved cases below.
[
  {
    "smiles-string": "CC(=O)Nc1ccc(Cc2cnc(N)nc2N)cc1[N+](=O)[O-]",
    "assigned-class": "low"
  },
  {
    "smiles-string": "COc1ccc(Cc2cnc(N)nc2N)cc1C(F)(F)F",
    "assigned-class": "high"
  },
  {
    "smiles-string": "CCCCCCCCOc1cc(Cc2cnc(N)nc2N)ccc1OC",
    "assigned-class": "high"
  },
  {
    "smiles-string": "Nc1ncc(Cc2cccc(O)c2)c(N)n1",
    "assigned-class": "middle"
  },
  {
    "smiles-string": "CCOc1cc(Cc2cnc(N)nc2N)ccc1OCc1ccccc1",
    "assigned-class": "high"
  }
]

Inquiry: Kindly state the category for this molecule: COCCOc1ccc(Cc2cnc(N)nc2N)cc1OC
Reply text: middle

Inquiry: What do we get for Nc1ncc(Cc2ccc(O)c(O)c2)c(N)n1 ?
Reply text: high

###

Below: a set of entries, each annotated with reported pKi.
# target-of-assay: Dihydrofolate reductase (Gallus gallus)
# Sequence (P00378 whole entry): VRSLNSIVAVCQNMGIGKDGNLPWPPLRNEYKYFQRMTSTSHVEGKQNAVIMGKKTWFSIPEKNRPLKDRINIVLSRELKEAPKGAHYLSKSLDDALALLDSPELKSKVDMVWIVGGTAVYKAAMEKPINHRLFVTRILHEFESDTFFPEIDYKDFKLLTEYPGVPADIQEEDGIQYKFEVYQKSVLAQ
Would you please state pKi, meaning minus log10 of the concentration in mol/L, as a bare number?

[
  {
    "molecule": "Nc1ncc(Cc2ccc(OCc3ccccc3)cc2)c(N)n1",
    "measurement-label": "pKi",
    "result-number": 4.83
  },
  {
    "molecule": "CCOc1cc(Cc2cnc(N)nc2N)ccc1OCc1ccccc1",
    "measurement-label": "pKi",
    "result-number": 4.74
  },
  {
    "molecule": "Nc1ncc(Cc2ccc3c(c2)OCO3)c(N)n1",
    "measurement-label": "pKi",
    "result-number": 4.68
  },
  {
    "molecule": "COc1cc(Cc2cnc(N)nc2N)cc(OC)c1N(C)C [ADITOPRIM]",
    "measurement-label": "pKi",
    "result-number": 4.15
  },
  {
    "molecule": "COc1cc(Cc2cnc(N)nc2N)ccc1OCc1ccccc1",
    "measurement-label": "pKi",
    "result-number": 4.72
  },
  {
    "molecule": "COCCOc1c(Cc2cnc(N)nc2N)ccc(OC)c1OC",
    "measurement-label": "pKi",
    "result-number": 3.64
  }
]

We now examine a further molecule.
Inquiry: For the molecule shown here, CCOc1cc(Cc2cnc(N)nc2N)cc(OCC)c1 , give the reported pKi.
Reply text: 4.14

###

# experiment: Partition coefficient (logD) (0.01 N NaOH)
# Format: physicochemical
# test-conditions: 0.01 N NaOH; read-out: logD
measurement-label: logD
Number, no unit, nothing else.

Solved entries (count: 3):
[
  {
    "compound": "C=C(C)c1c(OC)cc(Cc2cnc(N)nc2N)cc1OC",
    "logD": 2.07
  },
  {
    "compound": "COc1cc(Cc2cnc(N)nc2N)ccc1OS(C)(=O)=O",
    "logD": 0.6
  },
  {
    "compound": "COc1ccc(Cc2cnc(N)nc2N)cc1OCc1ccccc1",
    "logD": 2.44
  }
]

Inquiry: For the compound shown here, CS(=O)(=O)Oc1ccc(Cc2cnc(N)nc2N)cc1 , give the reported logD.
Reply text: 0.6

Inquiry: What do we get for COc1ccc(Cc2cnc(N)nc2N)cc1OC [DIAVERIDINE] ?
Reply text: 0.97

Inquiry: What do we get for COc1cc(Cc2cnc(N)nc2N)cc(OC)c1Br [BRODIMOPRIM] ?
Reply text: 2.01

All figures here come from ChEMBL document CHEMBL1124563.
